These data points were gathered from PubChem BioAssay (NCI).

Test system: LOX IMVI melanoma
procedureSummary: NCI tumour cell line growth inhibition, 48 h; in the data active = GI50 below about 0.43 µM; inactive = the rest
Labels: YES = active, NO = inactive

molecule: CCOC(=O)C1=CN(C)C=C(C(=O)OCC)C1c1cc(Br)c(OCC)c(OC)c1
targetEntity: LOX IMVI melanoma
classLabel: NO
--
molecule: COc1ccc(OC)c2c1[nH]c(=O)c1c3ccccc3cn21
targetEntity: LOX IMVI melanoma
classLabel: NO
--
molecule: COc1cccc(CC(C)=C(c2ccc(OCCN(C)C)cc2)c2ccc(OCCN(C)C)cc2)c1
targetEntity: LOX IMVI melanoma
classLabel: NO
--
molecule: CCN(CC)CCC(CNc1ccnc2cc(Cl)ccc12)c1ccc(Cl)cc1 (centres undefined)
targetEntity: LOX IMVI melanoma
classLabel: NO
--
molecule: CCCCC#CC1=C(Br)C(=O)OC1
targetEntity: LOX IMVI melanoma
classLabel: YES
--
molecule: CCN1CCN(C(=O)[C@@]2(C)CC[C@]3(C)CC[C@]4(C)C(=CC(=O)[C@@H]5[C@@]6(C)CC[C@H](OC7C[C@@H](O)[C@@H](O)C(C)O7)C(C)(C)[C@@H]6CC[C@]54C)[C@@H]3C2)CC1 (some centres undefined)
targetEntity: LOX IMVI melanoma
classLabel: NO
--
molecule: NC(=S)N/N=C/C(=O)O
targetEntity: LOX IMVI melanoma
classLabel: NO
--
molecule: COc1cc(OCc2cccc(-c3ccc(C(O)c4nccs4)cc3)c2C)cc(OC)c1C=O (centres undefined)
targetEntity: LOX IMVI melanoma
classLabel: NO
--
molecule: Cc1cc(Cl)cc(OCCn2cc(F)cn2)c1-c1nc(N)nc2c1CN(C(=O)NCC(C)(F)F)C2
targetEntity: LOX IMVI melanoma
classLabel: YES

###

TGI by entry:
Test system: MALME-3M melanoma
procedureSummary: NCI tumour cell line growth inhibition, 48 h

molecule: Cn1cc(C2=C(c3ccc(N)cc3)C(=O)NC2=O)c2ccccc21
TGI: > 25 µM
//
molecule: c1ccc(N=C(N2CCCC2)N(CCN2CCCC2)c2ccccc2)cc1
TGI: > 100 µM
//
molecule: C=CCc1cccc2cc(C(=O)NCc3ccccc3)c(=N)oc12
TGI: 40.4 µM
//
molecule: CCCCCCNc1n[nH]c(=O)c2c1nnn2Cc1ccccc1
TGI: > 100 µM
//
molecule: CC(=O)N(C(C)=O)c1ncc(-n2nc(-c3ccccc3)cc2-c2ccccc2)c(-c2ccccc2)n1
TGI: > 10 µM
//
molecule: COC(=O)/C=C(\C(=O)OC)C1C(=O)Oc2c(C)c(=O)c3ccccc3n21 (stereo unspecified)
TGI: > 100 µM

###

Test system: SF-268 CNS
procedureSummary: NCI tumour cell line growth inhibition, 48 h
Starred links: 1 amine or outer side, 2 acyl side, 3 side chain; linkers in the order of their positions; H or OH if unused. Positions of bridges follow the written chain, without caps; N, C: chain ends. Non-standard residues stand in square brackets, D forms with d. Residues, ends and D or L forms follow the SMILES beside them. Chains are numbered I, II in the order given. Actinocin(9to1) = Cc1c2oc3c(C)ccc(C(=O)[*:1])c3nc-2c(C(=O)[*:2])c(N)c1=O; NMeY = CN[CH](Cc1ccc(O)cc1)C(=O)O; Sar = CNCC(=O)O
TGI by entry:

compound: O=S(=O)(O)CCCc1cccc2ccccc12
TGI: > 100 µM

compound: COC(=O)C1c2cc3c(cc2C(OC2OC(C)C(OC)C(C)(OC)C2OC)CC1(C)O)C(=O)c1c(O)cc2c(c1C3=O)OC1OC2(C)C(O)C([N+](C)(C)[O-])C1O (stereo unspecified)
TGI: > 21.4 µM

compound: N#Cc1c(N)nc(N2CCOCC2)c(C#N)c1-c1ccncc1
TGI: > 100 µM

compound: COc1cc2c(cc1OC)C(CC1=C(c3ccccc3)CN3CCc4cc(OC)c(OC)cc4C3C1)NCC2 (stereo unspecified)
TGI: 37.5 µM

compound: O=C(Nc1ccn(CCO)c(=O)n1)c1ccccc1
TGI: > 100 µM

compound: O=P(O)(O)CCP(=O)(O)O
TGI: > 100 µM

compound: CC(=O)OC1/C=C(\C)C(OC(C)=O)C/C=C(/C)CCC2C(/C=C/C1=O)C2(C)C (stereo unspecified)
TGI: > 100 µM

compound: O=C(CCN(C(=O)O)S(=O)(=O)c1ccc(NC(=O)c2ccccc2)cc1)Nc1ccccc1
TGI: > 100 µM

compound: O=C1Nc2cccc(Cl)c2/C1=C\c1c(Cl)nc2n1CCS2
TGI: > 100 µM

compound: CC(=O)CCn1ncc(Cl)c(Cl)c1=O
TGI: 28 µM

compound: BrC1=C(Br)C2(SCCS2)[C@H]2C[C@@H]1c1ccccc12
TGI: > 100 µM

compound: CNCc1ccccc1-c1csc([C@@H](C)Nc2nc(C)nc3cc(OC)c(OC)cc23)c1
TGI: 12.4 µM

compound: Cc1ccc(S(=O)(=O)c2[nH]cc(/C(=C\C3CCCCC3)[N+](=O)[O-])c2C2CCCCC2)cc1
TGI: 1.84 µM

compound: CC(C)Cc1ccc(C(C)C(=O)N2CCN(/C=C/c3ccccc3)CC2)cc1 (stereo unspecified)
TGI: 32 µM

compound: COc1cccc(F)c1C(=O)c1cnc(NC2CCN(S(C)(=O)=O)CC2)nc1N
TGI: > 21.4 µM

compound: CCCCOC(=O)CNC(=O)OC/C=C/C#CC#C/C=C/COC(=O)NCC(=O)OCCCC
TGI: > 100 µM

compound: O=C(O)c1nnsc1-c1ccc(-c2snnc2C(=O)O)cc1
TGI: > 100 µM

compound: O=CCC1CCCCC1
TGI: > 100 µM

compound: COC(=O)/C=C(\C(=O)OC)C1C(=O)Oc2c(C)c(=O)c3ccccc3n21 (stereo unspecified)
TGI: > 100 µM

compound: Cc1c2oc3c(C)ccc(C(=O)NC4C(=O)NC(C(C)C)C(=O)N5CCCC5C(=O)N(C)CC(=O)N(C)C(Cc5ccc(O)cc5)C(=O)OC4C)c3nc-2c(C(=O)NC2C(=O)NC(C(C)C)C(=O)N3CCCC3C(=O)N(C)CC(=O)N(C)C(Cc3ccc(O)cc3)C(=O)OC2C)c(N)c1=O (stereo unspecified) (I: TVP[Sar][NMeY] / II: TVP[Sar][NMeY]; ester I:1-I:C, II:1-II:C; linker I:N-II:N via Actinocin(9to1); configuration not given here)
TGI: > 1 µM

compound: O=c1[nH]cnc2c1cnn2Cc1cn(CCCCO)nn1
TGI: > 100 µM

compound: Cc1c(C)c2c(c(N)c1C#N)C(=O)N(NC(=O)c1ccccc1)C2=O
TGI: > 100 µM

compound: O=[N+]([O-])C[C@@]12O[C@]3(O)C4C5CC(C6C5C3C61)C42 (stereo partly specified)
TGI: > 100 µM

compound: CCN(CC)Cc1ccc(C(=S)Nc2ccc(Cl)cc2)s1
TGI: 30 µM

compound: CCOC(=O)C1=CN(C)C=C(C(=O)OCC)C1c1cc(Br)c(OCC)c(OC)c1
TGI: > 100 µM

compound: COc1cc(OC)cc(Oc2nc3ccccc3nc2C(F)(F)F)c1
TGI: > 100 µM

compound: NC(CCCCCP(=O)(c1ccccc1)C1C=CC=CC1)C(=O)O (stereo unspecified)
TGI: > 100 µM

compound: CC(=O)Nc1ccc(S(=O)(=O)N2C(=O)CCC2C(=O)Nc2ccc(Br)cc2)cc1 (stereo unspecified)
TGI: 21.9 µM

compound: C(=NCCN1CCOCC1)=NC1CCCCC1
TGI: > 100 µM

compound: COc1cccc(CC(C)=C(c2ccc(OCCN(C)C)cc2)c2ccc(OCCN(C)C)cc2)c1
TGI: 8.69 µM

compound: O=c1oc2ccccc2cc1-c1cc2ccccn2c1
TGI: > 100 µM

compound: C=CCn1c(N)c(C#N)c(C#N)c1-c1ccccc1
TGI: > 100 µM

compound: Cc1n(Cc2ccccc2)c2c([n+]1C)C(=O)c1ccccc1C2=O
TGI: 0.143 µM

compound: O=C(O)C(O)C(O)C(O)C(O)c1nc2ccccc2s1 (stereo unspecified)
TGI: 29 µM

compound: C[n+]1c2ccc(Cl)cc2nc2cc(-c3ccccc3)ccc21
TGI: 35.5 µM

compound: O=[N+]([O-])c1cccc(C2=NN(c3ccccc3)C[N+](c3ccc(Br)cc3)=N2)c1
TGI: > 100 µM

compound: CCC(=O)CC(=O)CCC(=O)Nc1cc(C)ccc1C
TGI: > 100 µM

compound: NC(N)=NS(=O)(=O)c1ccc(NNc2c3ccccc3nc3c(C(=O)Nc4ccc(S(=O)(=O)Nc5ncccn5)cc4)cccc23)cc1
TGI: > 100 µM

compound: Cc1ccc2c(c1)C(=S)N1CSCC1c1nncn1-2 (stereo unspecified)
TGI: > 100 µM

compound: O=C1CCC2(c3ccc(Cl)cc3)Nc3ncccc3N12 (stereo unspecified)
TGI: > 100 µM

compound: CC1(C)[C@@H](Cn2ccc(=O)[nH]c2=O)CC[C@@]1(C)CO
TGI: > 100 µM
